# Test system: Streptococcus spp.
# method_description: Effect on the intestinal bacterial colonies: Streptococcus spp. count in mouse feces
# Assay type: in vivo
# test_settings: in vivo, po, 500 mg/kg/day
observable: Logarithmic value of the number of bacterial cells per one g of feces: Strept. spp.

Guide cases for Logarithmic value of the number of bacterial cells per one g of feces: Strept. spp., answers given:
compound | target_or_system | assay_value
COC(=O)CCC(NC(=O)C1=C(COC(C)=O)CSC2C(NC(=O)Cc3cccs3)C(=O)N12)C(=O)OC (stereo not shown) [Example 4] | Streptococcus spp. | 7.0 Logarithmic value of the numbe
CCOC(=O)C(Cc1ccc(O)cc1)NC(=O)C1=C(COC(C)=O)CSC2C(NC(=O)Cc3cccs3)C(=O)N12 (stereo not shown) [Example 3] | Streptococcus spp. | 6.3 Logarithmic value of the numbe
COC(=O)C[C@H](NC(=O)C1=C(COC(C)=O)CSC2C(NC(=O)Cc3cccs3)C(=O)N12)C(=O)OC (stereo partly shown) [Example 1] | Streptococcus spp. | 7.0 Logarithmic value of the numbe

Moving on to the next compound.
Return Logarithmic value of the number of bacterial cells per one g of feces: Strept. spp. (reported value) for this compound: COC(=O)[C@H](CCSC)NC(=O)C1=C(COC(C)=O)CSC2C(NC(=O)Cc3cccs3)C(=O)N12 (stereo partly shown) [Example 2]
6.6 Logarithmic value of the numbe
